- System Tested: Cytochrome P450 3A4 (Homo sapiens, UniProt P08684)
- Sequence (P08684 whole entry): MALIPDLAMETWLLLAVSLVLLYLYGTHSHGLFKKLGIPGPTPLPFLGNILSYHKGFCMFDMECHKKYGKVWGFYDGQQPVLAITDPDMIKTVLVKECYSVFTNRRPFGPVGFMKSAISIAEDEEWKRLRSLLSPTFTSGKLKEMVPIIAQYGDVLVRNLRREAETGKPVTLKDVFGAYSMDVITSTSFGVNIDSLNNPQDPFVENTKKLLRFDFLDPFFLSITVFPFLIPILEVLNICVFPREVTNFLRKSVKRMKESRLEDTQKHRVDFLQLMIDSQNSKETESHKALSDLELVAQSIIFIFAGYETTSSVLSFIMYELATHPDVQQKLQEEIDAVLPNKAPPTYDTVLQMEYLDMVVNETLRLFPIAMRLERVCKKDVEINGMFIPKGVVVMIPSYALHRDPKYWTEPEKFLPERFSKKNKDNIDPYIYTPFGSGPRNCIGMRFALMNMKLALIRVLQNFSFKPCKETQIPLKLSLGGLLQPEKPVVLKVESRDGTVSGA

- Smiles Entry: "CC(C)O[C@H]1CC[C@H](C(=O)N2Cc3cccnc3Nc3ccc(N4C[C@H]5CC[C@@H]4CO5)cc32)OC1"
  IC50 (nM): 1000

----------
- Assay Comment: Oral bioavailability in rat 1 mg/kg measured up to 24 hrs by LC-MS/MS analysis
- Assay type: ADME, organism-based
- Condition Details: in vivo

- Molecule: "CC(C)O[C@H]1CC[C@H](C(=O)N2Cc3cccnc3Nc3cc(F)c(C4COCCO4)cc32)OC1 (stereo partly specified)"
  bioavailability (%): 100

----------
- Assay Comment: Distribution coefficient, logD of compound at pH 7.4 by HPLC analysis
- Type: physicochemical
- Condition Details: octanol/water
Measured Attribute: logD

- Molecule: "CC(C)O[C@H]1CC[C@H](C(=O)N2Cc3cccnc3Nc3cc(F)c(C4COCCO4)cc32)OC1 (stereo partly specified)"
  Measured Attribute: "logD"
  Recorded Measurement: 2.67
